# credit: paper PMC11995724

# Tested on: S. aureus MSSA476
# Construct: MSSA476
# Set-up: species or system S. aureus MSSA476 (TSB) or V. cholerae SAD30 (LB); 384-well bacterial growth screen at 25 uM, OD600 relative to DMSO control
# Test Parameters: relative growth, OD600, TSB; 25 µM; inhibitor
Among all 3,200 compounds or so, about 75 (2%) showed an effect of 50% or more. Many of the other results were omitted from the sample, so strong results are more common in it than they were.
Measurement Label: % of control remaining (%)
Number only, in %; omit the unit.

Input line: Fill blank: measured % of control remaining of the compound C=CC(=O)NCCc1ccccc1OC is ____.
Output line: 95.7354

Input line: Fill blank: measured % of control remaining of the compound Cc1cccc(CC(=O)CCl)c1 is ____.
Output line: 130.938

Input line: Fill blank: measured % of control remaining of the compound N#CC(=Cc1cccc(O)c1)C(=O)NCCc1ccccc1 is ____.
Output line: 116.183

Input line: Fill blank: measured % of control remaining of the compound C=CC(=O)N(CC)CC(=O)N1CCCC1c1ccc(F)cc1C (centres unmarked) is ____.
Output line: 97.1279

Input line: Fill blank: measured % of control remaining of the compound CS(=O)(=O)c1ccc(C(=O)CCl)cc1 is ____.
Output line: 83.125
